Value source: patent US12534456B2

# Test name: physchem
# Format: physicochemical
Metric name: LogP

>>> experimental_value("NOCC(Cc1ccc(Br)cc1Cl)NC(=O)c1cc(Cl)ncc1Oc1cccc(C2CC2)c1F (stereo not shown)")
"4.08^[a]"
>>> experimental_value("CC1ON=C(c2cc(Cl)ncc2Oc2cccc(C(F)(F)F)c2)NC1c1ccc(Cl)cc1 (mixture of isomers)")
"4.19^[a]"
>>> experimental_value("C#Cc1ccc(CC2CON=C(c3cc(C#C)ncc3Oc3cccc(C(F)(F)F)c3)N2)c(C)c1 (racemic)")
"3.75^[a]"
>>> experimental_value("Cc1ccc(CC(CCl)NC(=NO)c2cc(Cl)ncc2Br)c(Cl)c1 (stereo not shown)")
"3.85^[a]"
>>> experimental_value("Cc1ccc(C2CON=C(c3cc(Cl)ncc3Oc3cccc(C(F)(F)F)c3)N2)cc1 (racemic)")
"3.96^[a]"
>>> experimental_value("Cc1ccc(CC2CON=C(c3cc(Cl)ncc3Oc3cccc(C4CC4)c3F)N2)c(C)c1 (single isomer, unassigned) [Compound I-021]")
"4.93^[a]"
>>> experimental_value("Cc1ccc(CC2CON=C(c3cc(Cl)ncc3Oc3cccc(Cl)c3F)N2)c(C)c1 (stereo not shown)")
"4.59^[a]"
